# procedureDetails: Caco-2 permeability assay
# testConditions: human, Caco-2
measurementKind: Papp B→A at 2 h, 10 μM (×10⁻⁶ cm/s)
The reply should be a number in ×10⁻⁶ cm/s, with the unit left off.

Q) Requested read-out: Papp B→A at 2 h, 10 μM. Entry: CN(C)C(=O)C(CCN1CCC(O)(c2ccc(Cl)cc2)CC1)(c1ccccc1)c1ccccc1 [loperamide]
A) 27.5

* * *

# procedureDetails: Caco-2 permeability assay
# testConditions: human, Caco-2, B to A % recovery, B to A
measurementKind: recovery at 2 h, 10 μM (%)
A number alone suffices; assume %.

Q) Dear colleague, I am looking for the recorded recovery at 2 h, 10 μM of the following compound: CN(C)C(=O)C(CCN1CCC(O)(c2ccc(Cl)cc2)CC1)(c1ccccc1)c1ccccc1 [loperamide]
A) 85

Reference for the values: patent US20260258087A1
